The following binders are shown together with reported Kd values.
study target: T1, Human VEGF 165 (human, UniProt P15692-4 27-191)
T1 construct: Loaded on the BLI probe as the ligand; also called BLI ligand Human VEGF 165 (Avi tag, R&D Systems AVI-293-050); not shown: Avi tag
T1 sequence (P15692 other isoform, or with tags, fused parts or gaps limits assumed): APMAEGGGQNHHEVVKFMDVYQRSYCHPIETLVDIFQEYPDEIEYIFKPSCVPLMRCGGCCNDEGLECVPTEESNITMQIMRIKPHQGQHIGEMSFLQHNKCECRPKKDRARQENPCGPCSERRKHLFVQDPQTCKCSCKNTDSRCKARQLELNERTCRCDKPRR
test name: BLI, VEGF 165 on probe, conjugate as analyte, t = 0; value is the limit of detection

Worked examples, 3 binders total:
binder	measurement
Conjugate 1 (anti-VEGF DARPin SEQ ID NO: 92 on hyaluronic acid, intermediate 5-4) (designed binder, peptide bound through the organic linker MP2H to hyaluronic acid (830 kDa); site of attachment not stated, Multivalent peptide-hyaluronic acid conjugate (MVP); peptide valency 68; Method 5 intermediate (high EDC, N-acylurea adducts); also called DARPin MVP (Method 5)) GSDLDKKLLEAARAGQDDEVRILMANGADVNARDSTGWTPLHLAAPWGHPEIVEVLLKNGADVNAADFQGWTPLHLAAAVGHLEIVEVLLKYGADVNAQDKFGKTAFDISIDNGNEDLAEILQKAAGGGSGGGS	< 1 pM
Conjugate 2 (anti-VEGF DARPin SEQ ID NO: 92 on hyaluronic acid, intermediate 1-7) (designed binder, peptide bound through the organic linker MP2H to hyaluronic acid (830 kDa); site of attachment not stated, Multivalent peptide-hyaluronic acid conjugate (MVP); peptide valency 117; Method 1 intermediate; also called DARPin MVP (Method 1)) GSDLDKKLLEAARAGQDDEVRILMANGADVNARDSTGWTPLHLAAPWGHPEIVEVLLKNGADVNAADFQGWTPLHLAAAVGHLEIVEVLLKYGADVNAQDKFGKTAFDISIDNGNEDLAEILQKAAGGGSGGGS	< 1 pM
Conjugate 16 (anti-VEGF VHH SEQ ID NO: 91 with aH linker SEQ ID NO: 21 on hyaluronic acid, intermediate 2-6) (VHH, C-terminal Cys of the peptide linker bound by its thiol to the maleimide of the organic linker MP2H on hyaluronic acid (830 kDa), Multivalent peptide-hyaluronic acid conjugate (MVP); peptide valency 101; Method 2 intermediate; also called BI VHH anti-VEGF MVP) VHH: DVQLVESGGGLVQPGGSLRLSCAASGRTFSSYSMGWFRQAPGKEREFVVAISKGGYKYDAVSLEGRFTISRDNAKNTVYLQINSLRPEDTAVYYCASSRAYGSSRLRLADTYEYWGQGTLVTVSS	< 1 pM

Task item: Kd lookup needed for Conjugate 22 (anti-VEGF VHH SEQ ID NO: 91 with aH linker SEQ ID NO: 21 on hyaluronic acid, intermediate 1-10) (VHH, C-terminal Cys of the peptide linker bound by its thiol to the maleimide of the organic linker MP2H on hyaluronic acid (830 kDa), Multivalent peptide-hyaluronic acid conjugate (MVP); peptide valency 18; Method 1 intermediate; also called BI VHH anti-VEGF MVP) VHH: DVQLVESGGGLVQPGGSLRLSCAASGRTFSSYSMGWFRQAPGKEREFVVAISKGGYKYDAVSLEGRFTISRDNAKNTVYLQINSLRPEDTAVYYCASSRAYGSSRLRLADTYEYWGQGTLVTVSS , thanks.
Reply: < 1 pM

Task item: Kd lookup needed for Conjugate 19 (anti-VEGF VHH SEQ ID NO: 91 on hyaluronic acid, intermediate 2-6) (VHH, peptide bound through the organic linker MP2H to hyaluronic acid (830 kDa); site of attachment not stated, Multivalent peptide-hyaluronic acid conjugate (MVP); peptide valency 108; Method 2 intermediate; also called BI VHH anti-VEGF MVP) VHH: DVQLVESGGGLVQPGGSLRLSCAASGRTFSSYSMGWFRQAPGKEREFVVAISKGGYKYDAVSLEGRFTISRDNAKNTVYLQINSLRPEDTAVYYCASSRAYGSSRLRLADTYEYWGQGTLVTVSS , thanks.
Reply: < 1 pM

Task item: Kd lookup needed for Conjugate 23 (anti-VEGF VHH SEQ ID NO: 91 with aH linker SEQ ID NO: 21 on hyaluronic acid, intermediate 1-11) (VHH, C-terminal Cys of the peptide linker bound by its thiol to the maleimide of the organic linker MP2H on hyaluronic acid (830 kDa), Multivalent peptide-hyaluronic acid conjugate (MVP); peptide valency 33; Method 1 intermediate; also called BI VHH anti-VEGF MVP) VHH: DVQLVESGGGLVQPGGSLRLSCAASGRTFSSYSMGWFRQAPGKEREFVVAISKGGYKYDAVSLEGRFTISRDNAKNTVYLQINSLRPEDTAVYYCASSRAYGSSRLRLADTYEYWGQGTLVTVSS , thanks.
Reply: < 1 pM

Task item: Kd lookup needed for Conjugate 21 (anti-VEGF VHH SEQ ID NO: 91 with aH linker SEQ ID NO: 21 on hyaluronic acid, intermediate 1-9) (VHH, C-terminal Cys of the peptide linker bound by its thiol to the maleimide of the organic linker MP2H on hyaluronic acid (830 kDa), Multivalent peptide-hyaluronic acid conjugate (MVP); peptide valency 51; Method 1 intermediate; also called BI VHH anti-VEGF MVP) VHH: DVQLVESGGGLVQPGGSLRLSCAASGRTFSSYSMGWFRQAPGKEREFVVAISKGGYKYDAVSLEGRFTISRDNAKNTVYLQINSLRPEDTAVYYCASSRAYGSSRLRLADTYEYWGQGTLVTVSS , thanks.
Reply: < 1 pM

Task item: Kd lookup needed for Conjugate 20 (anti-VEGF VHH SEQ ID NO: 91 on hyaluronic acid, intermediate 2-8) (VHH, peptide bound through the organic linker MP2H to hyaluronic acid (830 kDa); site of attachment not stated, Multivalent peptide-hyaluronic acid conjugate (MVP); peptide valency 91; Method 2 intermediate; also called BI VHH anti-VEGF MVP) VHH: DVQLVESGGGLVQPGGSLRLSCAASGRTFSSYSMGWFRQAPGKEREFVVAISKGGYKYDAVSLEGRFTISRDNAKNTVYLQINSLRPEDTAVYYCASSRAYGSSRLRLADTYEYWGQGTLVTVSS , thanks.
Reply: < 1 pM

Task item: Kd lookup needed for Conjugate 18 (anti-VEGF VHH SEQ ID NO: 91 on hyaluronic acid, intermediate 1-7) (VHH, peptide bound through the organic linker MP2H to hyaluronic acid (830 kDa); site of attachment not stated, Multivalent peptide-hyaluronic acid conjugate (MVP); peptide valency 88; Method 1 intermediate; also called BI VHH anti-VEGF MVP) VHH: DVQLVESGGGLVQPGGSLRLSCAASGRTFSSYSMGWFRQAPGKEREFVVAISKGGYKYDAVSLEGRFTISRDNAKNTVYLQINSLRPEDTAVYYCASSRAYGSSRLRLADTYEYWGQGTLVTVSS , thanks.
Reply: < 1 pM
